# Test summary: physchem
# Condition parameters: pH 7.4 buffer
# Description: Tested for solubility in pH 7.4 buffer, at 25 Degree C
Readout label: solubility (mM)

Cn1nc(S(N)(=O)=O)sc1=NS(=O)(=O)C(F)(F)F    69
NS(=O)(=O)c1nnc(NC(=O)c2c(F)c(F)c(F)c(F)c2F)s1    43
NS(=O)(=O)c1nnc(NS(=O)(=O)C(F)(F)C(F)(F)C(F)(F)C(F)(F)F)s1    50

----------
# pKi values compiled below
# System tested: Carbonic anhydrase 1 (Homo sapiens, UniProt P00915)
# Sequence (P00915 whole entry): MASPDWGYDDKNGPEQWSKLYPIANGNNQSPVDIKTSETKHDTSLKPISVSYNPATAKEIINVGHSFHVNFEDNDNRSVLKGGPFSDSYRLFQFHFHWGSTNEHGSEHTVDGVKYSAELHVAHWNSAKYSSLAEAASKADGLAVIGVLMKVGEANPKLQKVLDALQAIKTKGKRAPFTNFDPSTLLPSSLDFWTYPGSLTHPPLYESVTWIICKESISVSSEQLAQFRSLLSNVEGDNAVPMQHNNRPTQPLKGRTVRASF
# Test summary: Tested for inhibition of human (cloned) isozyme Carbonic anhydrase I
pKi: −log10 of the molar value.
Readout label: pKi

NS(=O)(=O)c1cccc(NC(=O)c2c(F)c(F)c(F)c(F)c2F)c1    5.85
NS(=O)(=O)c1ccccc1NC(=O)c1c(F)c(F)c(F)c(F)c1F    5.81

----------
# solubility values compiled below
# Test summary: Solubility in pH 7.4 Buffer, at 25 Degree C
# Type: physicochemical
Readout label: solubility (mM)

NS(=O)(=O)c1nnc(NS(=O)(=O)c2c(F)c(F)c(F)c(F)c2F)s1    62
Cn1nc(S(N)(=O)=O)sc1=NS(=O)(=O)c1c(F)c(F)c(F)c(F)c1F    66

----------
# System tested: Carbonic anhydrase 1 (Homo sapiens, UniProt P00915)
pKi: −log10 of the molar value.
Readout label: pKi

NS(=O)(=O)c1ccc(NS(=O)(=O)C(F)(F)F)c(Br)c1    3.70
NS(=O)(=O)c1nnc(NS(=O)(=O)C(F)(F)C(F)(F)C(F)(F)C(F)(F)F)s1    6.44
NS(=O)(=O)c1ccc(NS(=O)(=O)c2ccc(NC(=O)C(F)(F)C(F)(F)C(F)(F)C(F)(F)C(F)(F)C(F)(F)C(F)(F)C(F)(F)F)cc2)cc1    5.62
NS(=O)(=O)c1ccc(NS(=O)(=O)C(F)(F)C(F)(F)C(F)(F)C(F)(F)F)c(F)c1    5.97
Cn1nc(S(N)(=O)=O)s/c1=N/S(=O)(=O)c1ccc(NS(=O)(=O)c2c(F)c(F)c(F)c(F)c2F)cc1    7.68
NS(=O)(=O)c1cc(S(N)(=O)=O)c(NC(=O)C(F)(F)C(F)(F)C(F)(F)C(F)(F)C(F)(F)C(F)(F)C(F)(F)C(F)(F)F)c(Cl)c1Cl    5.15
NS(=O)(=O)c1ccc(COS(=O)(=O)C(F)(F)C(F)(F)C(F)(F)C(F)(F)F)cc1    4.61
NS(=O)(=O)c1ccc(NS(=O)(=O)c2c(F)c(F)c(F)c(F)c2F)cc1    6.05
NS(=O)(=O)c1ccc(NC(=O)C(F)(F)C(F)(F)C(F)(F)C(F)(F)C(F)(F)C(F)(F)C(F)(F)C(F)(F)F)cc1    5.85
Cn1nc(S(N)(=O)=O)s/c1=N/S(=O)(=O)c1ccc(NS(=O)(=O)C(F)(F)C(F)(F)C(F)(F)C(F)(F)C(F)(F)C(F)(F)C(F)(F)C(F)(F)F)cc1    5.96
NS(=O)(=O)c1ccccc1NS(=O)(=O)C(F)(F)C(F)(F)C(F)(F)C(F)(F)C(F)(F)C(F)(F)C(F)(F)C(F)(F)F    5.82
NS(=O)(=O)c1ccc(CCNS(=O)(=O)C(F)(F)F)cc1    4.09
NS(=O)(=O)c1cccc(NS(=O)(=O)c2ccc(NS(=O)(=O)C(F)(F)C(F)(F)C(F)(F)C(F)(F)F)cc2)c1    5.40
NS(=O)(=O)c1ccc(COS(=O)(=O)C(F)(F)C(F)(F)C(F)(F)C(F)(F)C(F)(F)C(F)(F)C(F)(F)C(F)(F)F)cc1    4.82
NS(=O)(=O)c1nnc(NS(=O)(=O)c2ccc(NC(=O)C(F)(F)C(F)(F)C(F)(F)C(F)(F)C(F)(F)C(F)(F)C(F)(F)C(F)(F)F)cc2)s1    6.22
